- System: U937
- Set-up: species or system AML cell lines (8); Primary HTS, single concentration about 10 uM, Cell Titer Glo viability; log10 luminescence, per cent inhibition relative to cycloheximide control
- experimental-context: 72 h, relative to cycloheximide control, log10 luminescence; inhibitor

>  <compound>
C[C@H](O)CNc1cc(-c2[nH]c3cccnc3c2-c2ccc(F)cc2)ccn1 [SJ000580968-1]

>  <U937 %inh [%]>
2.723

$$$$
>  <compound>
CCN(CC)S(=O)(=O)c1ccc(OC)c(Nc2ncc(-c3ccccc3)o2)c1 [SJ000573177-1, U14961/35/1]

>  <U937 %inh [%]>
3.148

$$$$
>  <compound>
O=C1NC(=NCCc2ccccc2Cl)S/C1=C\c1ccc2ncccc2c1 [SJ000581034-1]

>  <U937 %inh [%]>
0.6904

$$$$
>  <compound>
Cc1cc(O)cc(C)c1/C=C/c1cncc(C(=O)N(C)C)c1 [SJ000573241-1, U11962/4/2]

>  <U937 %inh [%]>
-1.176

$$$$
>  <compound>
COc1ccc(O)c(C(=O)c2ccc(C(=O)N[C@@H]3CCCNC[C@H]3NC(=O)c3ccncc3)cc2)c1F [SJ000580985-1]

>  <U937 %inh [%]>
23.19

$$$$
>  <compound>
FC(F)(F)c1ccc(-c2nn3ncccc3c2-c2ccnc(Nc3ccc4c(c3)OCCO4)n2)cc1 [SJ000573225-1, U17838/185/2]

>  <U937 %inh [%]>
-2.674

$$$$
>  <compound>
CCOC(=O)[C@H](CCc1ccccc1)N[C@@H](C)C(=O)N1[C@H](C(=O)O)C[C@H]2CCCC[C@@H]21 [SJ000286095-3, TRANDOLAPRIL]

>  <U937 %inh [%]>
1.075

$$$$

----------
Overview of reported M07e %inh across a group of compounds:
- Tested on: M07e
- Set-up: species or system AML cell lines (8); Primary HTS, single concentration about 10 uM, Cell Titer Glo viability; log10 luminescence, per cent inhibition relative to cycloheximide control
- experimental-context: 72 h, relative to cycloheximide control, log10 luminescence; inhibitor

>  <compound>
COC[C@H](N=C1NC(=O)/C(=C/c2ccc3ncccc3c2)S1)c1ccccc1

>  <M07e %inh / %>
15.62

$$$$
>  <compound>
COc1ccc(-c2ccc3c(N4CCOC[C@@H]4C)nc(N4CCOC[C@@H]4C)nc3n2)cc1CO

>  <M07e %inh / %>
41.99

$$$$
>  <compound>
O=c1ncnc2n([C@H]3O[C@@H](CO)[C@H](O)[C@@H]3O)[nH]cc1-2 (stereo in doubt) [SJ000562682-1, ALLOPURINOL RIBOSIDE]

>  <M07e %inh / %>
-1.058

$$$$
>  <compound>
CN(c1ccc(NC(=O)NCCN2CCOCC2)cc1)c1ccnc(Nc2ccc(CS(C)(=O)=O)cc2)n1

>  <M07e %inh / %>
2.849

$$$$
>  <compound>
CCn1c(-c2nonc2N)nc2c(C#CC(C)(C)O)ncc(OCC3CCNCC3)c21

>  <M07e %inh / %>
-1.564

$$$$
>  <compound>
O=C1NC(=O)C(c2cccc(Cl)c2)=C1Nc1ccc(Cl)c(C(=O)O)c1

>  <M07e %inh / %>
-0.5868

$$$$
>  <compound>
CNC(=O)c1cc(-c2ccc(F)cc2)cc(-c2ccc(S(=O)(=O)N3CCCC3)cc2)c1N

>  <M07e %inh / %>
5.294

$$$$
>  <compound>
COc1cc2ncn(-c3cc(OCc4ccccc4C(F)(F)F)c(C(C)=O)s3)c2cc1OC

>  <M07e %inh / %>
-3.084

$$$$
>  <compound>
COc1ccc(N2Cc3cnc(Nc4ccccc4)nc3N([C@@H]3CC[C@@H](O)C3)C2=O)cc1

>  <M07e %inh / %>
3.499

$$$$
>  <compound>
O=C1Nc2ccccc2/C1=C/Nc1ccc2[nH]c(=O)[nH]c2c1

>  <M07e %inh / %>
4.187

$$$$
>  <compound>
Cc1ccc2c(-c3ccnc(Nc4ccc5c(c4)OCCO5)n3)c(-c3ccc(C(F)(F)F)cc3)nn2n1

>  <M07e %inh / %>
-1.129

$$$$
>  <compound>
CCS(=O)(=O)c1ccc(OC)c(Nc2ncc(-c3cccc(F)c3)o2)c1

>  <M07e %inh / %>
1.435

$$$$
>  <compound>
C=C(CC)C(=O)c1ccc(OCC(=O)O)c(Cl)c1Cl

>  <M07e %inh / %>
4.659

$$$$
>  <compound>
CC[C@H](C)[C@@H]1NC(=O)[C@H](Cc2ccc(O)cc2)NC(=O)[C@@H](N)CSSC[C@@H](C(=O)N2CCC[C@H]2C(=O)N[C@@H](CC(C)C)C(=O)NCC(N)=O)NC(=O)[C@H](CC(N)=O)NC(=O)[C@H](CCC(N)=O)NC1=O

>  <M07e %inh / %>
0.04623

$$$$
>  <compound>
C=CC1=C(C(=O)O)N2C(=O)[C@@H](NC(=O)/C(=N\OCC(=O)O)c3csc(N)n3)[C@H]2SC1

>  <M07e %inh / %>
-4.21

$$$$
>  <compound>
Cn1cc(C2=C(N3CCOCC3)C(=O)NC2=O)c2ccccc21

>  <M07e %inh / %>
-1.546

$$$$
>  <compound>
CC(C)c1ccc(Nc2nccc(-c3cnn4ncccc34)n2)cc1

>  <M07e %inh / %>
49.73

$$$$
>  <compound>
COc1cc2ncn(-c3cc(OCCc4ccccc4)c(C(N)=O)s3)c2cc1OC

>  <M07e %inh / %>
0.3839

$$$$
>  <compound>
Cc1ccc(S(=O)(=O)NC(=O)NN2CCCCCC2)cc1 [SJ000285887-7, TOLAZAMIDE]

>  <M07e %inh / %>
4.47

$$$$
>  <compound>
O=C1NC(=NCCc2ccccc2F)S/C1=C\c1ccc2ncccc2c1

>  <M07e %inh / %>
0.4729

$$$$
>  <compound>
FC(F)(F)CNc1nccc(-c2cnn3ncccc23)n1

>  <M07e %inh / %>
2.938

$$$$
>  <compound>
COc1cccc(C2=C(c3c(C)n(C)c4ccccc34)C(=O)NC2=O)c1

>  <M07e %inh / %>
8.342

$$$$
>  <compound>
CN(C)CCOc1ccc(-c2nc(-c3ccncc3)c(-c3ccc4c(c3)CC/C4=N\O)[nH]2)cc1

>  <M07e %inh / %>
3.647

$$$$
>  <compound>
COc1ccccc1Nc1ncc(-c2ccccc2)o1

>  <M07e %inh / %>
4.937

$$$$
>  <compound>
COc1cc(C)c2c(Oc3cccc(C(F)(F)F)c3)c(OC)cc(NC(C)CCCN)c2n1 (centres unmarked)

>  <M07e %inh / %>
38.9

$$$$
>  <compound>
COc1cccc(-n2ncc3c(N/N=C/c4ccncc4)ncnc32)c1

>  <M07e %inh / %>
-4.147

$$$$
>  <compound>
O=C1NC(=NCc2ccccc2)S/C1=C\c1ccc2ncccc2c1

>  <M07e %inh / %>
12.28

$$$$
>  <compound>
COc1ccc(-c2ccc3c(NC(=O)C4CC4)n[nH]c3n2)cc1

>  <M07e %inh / %>
-1.122

$$$$
>  <compound>
Cc1ccc2c(-c3ccnc(Nc4ccccc4)n3)c(-c3ccc(F)cc3)nn2n1

>  <M07e %inh / %>
7.072

$$$$

----------
Overview of reported MOLM-13 %inh across a group of compounds:
- Test system: MOLM-13
- Parameters: species or system AML cell lines (8); Primary HTS, single concentration about 10 uM, Cell Titer Glo viability; log10 luminescence, per cent inhibition relative to cycloheximide control
- experimental-context: 72 h, relative to cycloheximide control, log10 luminescence; inhibitor

>  <compound>
COc1cccc(-n2ncc3c(N/N=C/c4ccc(F)cc4)ncnc32)c1

>  <unit-of-measurement>
%

>  <MOLM-13 %inh>
0.1437

$$$$
>  <compound>
COc1cccc(-n2ncc3c(N/N=C/c4ccc(S(C)(=O)=O)cc4)ncnc32)c1

>  <unit-of-measurement>
%

>  <MOLM-13 %inh>
-3.446

$$$$
>  <compound>
C[C@@H](Oc1cc(-n2cnc3ccc(OC4CCN(C)CC4)cc32)sc1C(N)=O)c1ccccc1Cl

>  <unit-of-measurement>
%

>  <MOLM-13 %inh>
100.2

$$$$
>  <compound>
c1ccc(-c2nc3n(c2-c2ccc4c(c2)OCO4)CCC3)nc1

>  <unit-of-measurement>
%

>  <MOLM-13 %inh>
37.41

$$$$
>  <compound>
CS(=O)(=O)N1CCC(Nc2ncc(C(=O)c3c(F)cccc3F)c(N)n2)CC1

>  <unit-of-measurement>
%

>  <MOLM-13 %inh>
68.54

$$$$
>  <compound>
CC1=C(C(=O)Nc2ccc3[nH]ncc3c2)C(c2ccc(Cl)c(Cl)c2)CC(=O)N1 (stereo not shown)

>  <unit-of-measurement>
%

>  <MOLM-13 %inh>
0.01758

$$$$
>  <compound>
CCn1c(-c2nonc2N)nc2cncc(C(=O)N3CCNCC3)c21

>  <unit-of-measurement>
%

>  <MOLM-13 %inh>
0.2835

$$$$
